assay.notes: In vivo pharmacokinetic assay
Set-up: species or system NOD/SCID mice
measurement.context: mouse, iv; female NOD/SCID mice, single i.v. 20 mg/kg, n = 3 per time point; plasma (serum), RP-HPLC (HPLC coupled with mass spectrometry); read-out: maximum concentration (Cmax)
Where a SMILES comes first, the peptide text is derived from it. [ ]: non-standard residue; d: D form.
endpoint.name: Cmax (ng/mL)
Provide the reading as a plain figure in ng/mL.

Q: Value lookup for Cmax; key = CC(C)C[C@@H](NC(=O)[C@@H](CCC(=O)O)NC(=O)[C@H](NC(=O)CNC(=O)[C@@H](Cc1ccccc1)NC(=O)CNC(=O)[C@H]1CCCN1C(=O)[C@@H](Cc1ccccc1)NC(=O)[C@H](N)CCC(N)=O)[C@H](C)O)C(=O)N1CCC[C@@H]1C(=O)N[C@H](CO)C(=O)N[C@H](CO)C(=O)O [D-pep-P6] (H-[dQ][dF][dP]G[dF]G[dT][dE][dL][dP][dS][dS]-OH)
Ans: 13200

Data origin: paper PMC10810823
